Conditions: in ethyl formate, 303.15 K
recorded endpoint: solubility (mole fraction)
// no unit string in output, number only

Endpoint output: solubility (mole fraction) of "O=[N+]([O-])c1cc(F)c(F)cc1[N+](=O)[O-]" . Value?
0.00303

---

Settings: in n-propanol, 298.15 K
recorded endpoint: solubility (mole fraction)
// no unit string in output, number only

Endpoint output: solubility (mole fraction) of "O=[N+]([O-])c1cc(F)c(F)cc1[N+](=O)[O-]" . Value?
6.1e-05

---

Settings: in benzene, 333.15 K
recorded endpoint: solubility (mole fraction)
// no unit string in output, number only

Endpoint output: solubility (mole fraction) of "O=[N+]([O-])c1cc(F)c(F)cc1[N+](=O)[O-]" . Value?
0.0086
